Measured MFI accompanies every entry in the list below.
- Assay Target: full-length recombinant H7 HA (A/Netherlands/219/2003) on PER.C6 cells (influenza A virus (H7N7))
- Assay Explanation: FACS, IgG 5 µg/ml, HA-expressing PER.C6 cells; untransfected MFI 3
Value expressed in MFI; do not type the unit.

Some solved cases for reference:
CR8049 (antibody, V domains shown) VH: QVTLKESGPVLVKPKETLTLTCTVSGFSLSNTRMGVSWIRQPPGKALEWLAHIFSNDETSYRTSLKRRLTISQDISKSQVVLSMTNVDPADTATYFCARIGSGYESSAYSTWLDP VL: QVQLQQWGAGLLKPSETLSLTCAVYGGSFTDHYWSWIRQSPGKGLEWIGEVVHSGDTNYTPSLRNRVSISVDSSKNQFSLRLGSVTAADTAVYYCARGRNVAVVGAIQRHYDY | 4
CR8017 (antibody, V domains shown) VH: EVQLVETGGDLVQPGGSLRLSCSASEFSFSSYWMSWVRQAPGKGLEWVANMKQDGSEKYYVDSVKGRFTISRDNAKNSLYLQMNSLRGEDTAVYYCARGSCDDSWTGCHDAFDI VL: SSELTQDPAVSVALGQTVRITCQGDSLRSYYASWYQQKPGQAPVLVIYAKTNRPSGIPDRFSGSTSGNTASLTITGAQAEDEADYYCNSRDSSGNHVV | 4

Let us move to another entry and its MFI.
Dear colleague, I am looking for the recorded MFI of the following binder: CR8016 (antibody, V domains shown) VH: EVQLVESGGDLVQPGGSLRLSCSASEFSFSSYWMSWVRQAPGKGLEWVANMKQDGSEKYYVDSVKGRFTISRDNAKNSLYLQMNSLRGEDTAVYYCARGSCDDSWTGCHDAFDI VL: QSVVTQPPSVSGAPGQRVTISCTGSSSNIGAGYDVHWYQQLPGTAPKLLIYGNNNRPSGVPDRFSGSRSGPLALLAITGLQAEDEADYYCQSYDSSLSVYV 5
